- Target or test system: HCV NS5B polymerase 1b BK strain (Hepatitis C virus genotype 1b)
- Construct: six-histidine tag; made in house; host or cells: E. coli
- Sequence (P26663 2420-2989): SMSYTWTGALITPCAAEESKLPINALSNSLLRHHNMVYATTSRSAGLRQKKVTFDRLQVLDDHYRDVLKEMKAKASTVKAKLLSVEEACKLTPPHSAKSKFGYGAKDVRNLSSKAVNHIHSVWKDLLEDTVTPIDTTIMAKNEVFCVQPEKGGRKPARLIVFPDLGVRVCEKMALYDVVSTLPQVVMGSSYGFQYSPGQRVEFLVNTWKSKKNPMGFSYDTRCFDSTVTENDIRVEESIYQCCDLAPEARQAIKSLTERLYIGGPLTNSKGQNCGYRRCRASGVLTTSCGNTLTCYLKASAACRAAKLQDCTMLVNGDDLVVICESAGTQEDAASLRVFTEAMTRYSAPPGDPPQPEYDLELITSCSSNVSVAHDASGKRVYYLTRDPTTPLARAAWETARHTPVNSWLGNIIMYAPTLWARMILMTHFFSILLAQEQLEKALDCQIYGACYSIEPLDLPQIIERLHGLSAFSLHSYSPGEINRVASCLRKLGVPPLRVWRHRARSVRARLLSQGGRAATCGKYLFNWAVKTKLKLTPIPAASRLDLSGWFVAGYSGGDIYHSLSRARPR
- Assay overview: HCV NS5B polymerase enzymatic inhibition assay, strain 1b BK
- Type: biochemical
- Condition info: enzyme, strain 1b BK; read-out: HCV Polymerase Strain 1b BK IC50

{"columns": ["Compound", "Quantity unit", "IC50"],
 "data": [
  ["CC(C)CCCN(c1cc2oc(-c3ccc(F)cc3)c(-c3ncc[nH]3)c2cc1C1CC1)S(C)(=O)=O", "nM", 19],
  ["CS(=O)(=O)N(CCCCO)c1cc2oc(-c3ccc(F)cc3)c(-c3noc(=O)[nH]3)c2cc1C1CC1", "nM", 9000],
  ["COc1ccc(CN(c2cc3oc(-c4ccc(F)cc4)c(C4=NC(C)CN4)c3cc2C2CC2)S(C)(=O)=O)cc1 (stereo not shown)", "nM", 55],
  ["CS(=O)(=O)N(CCCS(N)(=O)=O)c1cc2oc(-c3ccc(F)cc3)c(-c3ncc[nH]3)c2cc1C1CC1", "nM", 16],
  ["CS(=O)(=O)N(CCN1CCCC1)c1cc2oc(-c3ccc(F)cc3)c(-c3ncc[nH]3)c2cc1C1CC1", "nM", 137],
  ["CS(=O)(=O)N(CCCCF)c1cc2oc(-c3ccc(F)cc3)c(-c3ncc[nH]3)c2cc1C1CC1", "nM", 26],
  ["CS(=O)(=O)CCCCN(c1cc2oc(-c3ccc(F)cc3)c(C3=NOCCN3)c2cc1C1CC1)S(C)(=O)=O", "nM", 25],
  ["CS(=O)(=O)N(CC(N)=O)c1cc2oc(-c3ccc(F)cc3)c(-c3ncc[nH]3)c2cc1C1CC1", "nM", 188],
  ["CS(=O)(=O)N(CCCC(=O)O)c1cc2oc(-c3ccc(F)cc3)c(C3=NOCN3)c2cc1C1CC1", "nM", 16],
  ["Cc1c[nH]c(-c2c(-c3ccc(F)cc3)oc3cc(N(CCO)S(C)(=O)=O)c(C4CC4)cc23)n1", "nM", 470]
]}
